target: human PXR (Homo sapiens, UniProt O75469)
Construct: expressed in transfected cells; host or cells: DPX2 (stably transformed tumor cell line)
Sequence (O75469 1-434): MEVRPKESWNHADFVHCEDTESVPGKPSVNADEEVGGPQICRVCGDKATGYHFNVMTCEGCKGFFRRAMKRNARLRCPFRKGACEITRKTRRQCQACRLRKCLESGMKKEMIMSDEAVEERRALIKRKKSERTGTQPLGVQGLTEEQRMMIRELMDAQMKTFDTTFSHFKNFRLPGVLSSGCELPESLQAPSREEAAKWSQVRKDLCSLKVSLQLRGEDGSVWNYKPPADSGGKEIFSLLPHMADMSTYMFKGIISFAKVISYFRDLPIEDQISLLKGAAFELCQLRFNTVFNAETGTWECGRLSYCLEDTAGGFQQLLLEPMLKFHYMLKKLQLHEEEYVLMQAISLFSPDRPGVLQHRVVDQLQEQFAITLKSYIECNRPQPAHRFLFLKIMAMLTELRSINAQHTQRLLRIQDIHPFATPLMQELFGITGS
assay-summary: Human PXR activation assay, luciferase reporter gene in DPX2 cells
Format: cell-based
run-parameters: 24 hr, relative to maximum fold induction by 10 or 20 uM rifampicin
assay-metric: % Emax (%)
One number for each entry, in %.

> print(dat)
                                   molecule  measured.result
1  O=C(NCc1ccc(F)cc1F)c1cn2c(c(O)c1=O)C(=O)N1C(C2)[N@@]2CCC[C@@H]1C2 (some centres unmarked) [Compound 20]              2.4
2  O=C(NCc1ccc(F)cc1F)c1cn2c(c(O)c1=O)C(=O)N1C(C2)[N@]2CCC[C@H]1C2 (some centres unmarked) [Compound 19]              1.5
3  O=C(NCc1ccc(F)cc1F)c1cn2c(c(O)c1=O)C(=O)N1C(C2)O[C@H]2CCC[C@@H]1C2 (some centres unmarked) [Compound 7]              6.5
4  O=C(NCc1ccc(F)cc1F)c1cn2c(c(O)c1=O)C(=O)N1C(C2)O[C@@H]2CCC[C@H]1C2 (some centres unmarked) [Compound 8]              6.6

We next turn to a different molecule, shown below.
Query the reported % Emax for human PXR (Homo sapiens, UniProt O75469); item: O=C(NC1(c2ccc(F)cc2F)CC1)c1cn2c(c(O)c1=O)C(=O)N1C(C2)O[C@H]2CCC[C@@H]1C2 (some centres unmarked) [Compound 28]
6.1

###

assay-summary: Cytotoxicity (CC50) in MT4 cells, CellTiter-Glo
Type: cell-based
run-parameters: human, MT4 cells; MT-4 cells, 5 days incubation; read-out: CC50
assay-metric: CC50 at 5 days
Answer by giving the amount and then stating its unit.

Any idea what its CC50 at 5 days is? The compound is O=C(NCc1cc(F)cc(F)c1)c1cn2c(c(O)c1=O)C(=O)N1[C@@H]3CC[C@@H](C3)O[C@H]1C2 [Compound 24]
12.6 µM

###

target: human PXR (NR1I2) (Homo sapiens, UniProt O75469)
Construct: expressed in transfected cells; host or cells: DPX2 (stably transformed tumor cell line)
Sequence (O75469 1-434): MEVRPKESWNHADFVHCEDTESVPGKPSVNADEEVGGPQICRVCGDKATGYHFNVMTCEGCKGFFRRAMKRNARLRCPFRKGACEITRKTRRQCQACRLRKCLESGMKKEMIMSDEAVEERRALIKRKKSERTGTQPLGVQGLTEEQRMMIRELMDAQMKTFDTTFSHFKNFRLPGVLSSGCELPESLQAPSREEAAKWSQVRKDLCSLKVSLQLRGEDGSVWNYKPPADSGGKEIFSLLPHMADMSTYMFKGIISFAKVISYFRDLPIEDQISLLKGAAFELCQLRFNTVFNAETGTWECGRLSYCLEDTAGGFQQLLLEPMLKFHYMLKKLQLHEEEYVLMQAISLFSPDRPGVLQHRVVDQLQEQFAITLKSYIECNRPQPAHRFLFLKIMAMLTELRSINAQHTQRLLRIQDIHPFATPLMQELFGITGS
assay-summary: Human PXR activation assay, luciferase reporter gene in DPX2 cells
Assay type: cell-based
run-parameters: human, relative to maximum fold induction by 10 or 20 uM rifampicin
assay-metric: Emax at 24 hr, 15 µM (%)
Numbers only, in %.

Here are 2 molecules together with their reported answers.
> print(dat)
                        structure.as.smiles                                    target          assay.metric  measured.result
1  C[C@@H](NC(=O)c1cn2c(c(O)c1=O)C(=O)N1[C@@H]3CC[C@@H](C3)O[C@H]1C2)c1ccc(F)cc1  human PXR (NR1I2) (Homo sapiens, UniProt O75469)  Emax at 24 hr, 15 µM             0.07
2  O=C(NCc1ccc(F)cc1F)c1cn2c(c(O)c1=O)C(=O)N1[C@@H]3CC[C@@H](C3)O[C@H]1C2  human PXR (NR1I2) (Homo sapiens, UniProt O75469)  Emax at 24 hr, 15 µM                5

Report Emax at 24 hr, 15 µM for every entry below.
1. O=C(NCc1ccc(F)cc1F)c1cn2c(c(O)c1=O)C(=O)N1[C@H]3CC[C@H](C3)O[C@@H]1C2
2. C[C@@H](NC(=O)c1cn2c(c(O)c1=O)C(=O)N1[C@H]3CC[C@H](C3)O[C@@H]1C2)c1ccc(F)cc1

1: 2.8; 2: 0.19
